# Tested on: BJeLR
# Protocol Notes: Modulatory profiling: Alamar Blue viability, lethal compound cotreated with death modulator (EC50, AUC)
# Type: cell-based, human
# Design: unit not given beside the values
# Condition Summary: BJeLR cells; lethal compound cotreated with modulator Nec-1; modulatory profile value (AUC)
Where a SMILES comes first, the peptide text is derived from it. The star is where a group is joined. Cbz = O=C(OCc1ccccc1)*
A collection of compounds and their measured AUC, modulator BJ.Nec-1
Output: the number by itself.

# example entries with known answers
* N/C(Cc1ccc(Cl)cc1)=N\OC(=O)c1cccc2ccccc12 | 0.1293
* O=P(Oc1ccccc1)(Oc1ccccc1)O[C@@H]1C=CS(=O)(=O)C1 | −0.01119
* CCCCNc1cc(C)nc(NCc2ccccc2)n1 | 0.0226
* CC1=CC(C)(C)Nc2ccc(OC(=O)c3cccnc3)cc21 | −0.02203
* CCOc1ccccc1-n1c(C(C)N2CCN(C(=O)COc3ccc(Cl)cc3)CC2)nc2ccccc2c1=O (stereo not shown) [erastin, reference compound] | 0.1665

AUC, modulator BJ.Nec-1 value, target or system BJeLR, for COc1c2c(cc3c1C(CC(=O)/C=C/c1ccccc1)[N+](C)(C)CC3)OCO2 (stereo not shown) : −0.06543

AUC, modulator BJ.Nec-1 value, target or system BJeLR, for C[C@H]1CCC[C@]2(C)C[C@H]3OC(=O)[C@H](CN4CCCC4)[C@H]3C=C12 : −0.01593

AUC, modulator BJ.Nec-1 value, target or system BJeLR, for CC(C)C[C@@H](C=O)NC(=O)[C@H](CC(C)C)NC(=O)[C@H](CC(C)C)NC(=O)OCc1ccccc1 [MG132, reference compound] (Cbz-Leu-Leu-Leu-aldehyde) : −0.0504

AUC, modulator BJ.Nec-1 value, target or system BJeLR, for CN(C)CC(O)Cn1c2ccc(Cl)cc2c2cc(Cl)ccc21 (stereo not shown) : 0.03195

AUC, modulator BJ.Nec-1 value, target or system BJeLR, for CCCCS(=O)(=O)/C=C\C=C/S(=O)(=O)CCCC : 0.001972

AUC, modulator BJ.Nec-1 value, target or system BJeLR, for CCOC(=O)[C@@H]1[C@@H](c2ccccc2)C(=O)CCN1NC(=O)c1ccccc1 : −0.02957

AUC, modulator BJ.Nec-1 value, target or system BJeLR, for O=C(CCl)N(c1ccc(Cl)cc1)c1c[nH]c2ccccc12 : 0.1883

AUC, modulator BJ.Nec-1 value, target or system BJeLR, for O=S1(=O)Nc2c(ccc3cccnc23)-c2ccccc21 : −0.02018

AUC, modulator BJ.Nec-1 value, target or system BJeLR, for CN(C)CCNC(=O)c1cc2c(s1)-c1ccc(Cl)cc1SC2 : 0.09849

AUC, modulator BJ.Nec-1 value, target or system BJeLR, for CCC(C(NNC(=O)c1ccc(C(F)(F)F)cc1)c1ccc(C(F)(F)F)cc1)[N+](=O)O (stereo not shown) : −0.03649

AUC, modulator BJ.Nec-1 value, target or system BJeLR, for O=c1c(N2CCCC2)c(Cl)cnn1-c1ccccc1 : 0.0115

AUC, modulator BJ.Nec-1 value, target or system BJeLR, for COc1cccc(-n2nnnc2S(C)(=O)=O)c1 : 0.06903

AUC, modulator BJ.Nec-1 value, target or system BJeLR, for O=C1C(Cl)=C(N2CCOCC2)C(=O)C(Cl)=C1N1CCOCC1 : 0.02974

AUC, modulator BJ.Nec-1 value, target or system BJeLR, for O=c1c(Cl)c(Cl)cnn1-c1ccc(Cl)c(C(F)(F)F)c1 : 0.03297

Value source: patent US10947188B2
